Test system: MCF7
Assay: Induction of apoptosis in Homo sapiens (human) MCF7 cells at 100 uM after 72 hr by flow cytometry
Assay type: cell-based
Settings: mcf7, 72 h
ASSAY ENDPOINT: Activity

structure=Nc1nc2c(ncn2COCCO)c(=O)[nH]1 result=Non-toxic
structure=Cc1ccc2cc3c(N)[nH]nc3nc2c1 result=Non-toxic
structure=Nc1[nH]nc2nc3ccccc3cc12 result=Non-toxic
structure=COc1ccc2cc3c(N)n[nH]c3nc2c1 result=15%

---

System: MCF7
Assay: Induction of apoptosis in Homo sapiens (human) MCF7 cells at 10 uM after 72 hr by flow cytometry
Assay type: cell-based
Details: mcf7, 72 h
ASSAY ENDPOINT: Activity

structure=Nc1[nH]nc2nc3ccccc3cc12 result=Non-toxic
structure=Cc1ccc2cc3c(N)[nH]nc3nc2c1 result=Non-toxic
structure=Nc1nc2c(ncn2COCCO)c(=O)[nH]1 result=Non-toxic
structure=COc1ccc2cc3c(N)n[nH]c3nc2c1 result=Non-toxic

---

System: MCF7
Experiment: Cytotoxicity against Homo sapiens (human) MCF7 cells at 10 uM after 72 hr
Format: cell-based
Conditions: mcf7, 72 h
ASSAY ENDPOINT: Activity

compound="Nc1nc2c(ncn2COCCO)c(=O)[nH]1 [ACYCLOVIR]" result=Non-toxic
compound=Nc1[nH]nc2nc3ccccc3cc12 result=Non-toxic
compound=Cc1ccc2cc3c(N)[nH]nc3nc2c1 result=Non-toxic
compound=COc1ccc2cc3c(N)n[nH]c3nc2c1 result=Non-toxic

---

Tested on: MCF-12A
Assay: Induction of apoptosis in Homo sapiens (human) MCF12A cells at 10 uM after 72 hr by flow cytometry
Type: cell-based
ASSAY ENDPOINT: Activity

molecule=Nc1[nH]nc2nc3ccccc3cc12 result=Non-toxic
molecule=COc1ccc2cc3c(N)n[nH]c3nc2c1 result=Non-toxic
molecule=Cc1ccc2cc3c(N)[nH]nc3nc2c1 result=Non-toxic
molecule="Nc1nc2c(ncn2COCCO)c(=O)[nH]1 [ACYCLOVIR]" result=Non-toxic
